Test system: Bifidobacterium sp.
Assay: Antimicrobial activity against Bifidobacterium sp. after 48 hrs by agar dilution method
Assay type: functional
# MIC90 per entry
Your answer is read as µg/mL, so omit the unit and give the number.

Check out these entries, answers already filled in.
COMPOUND: O=C(N[C@H](CO)[C@H](O)c1ccc([N+](=O)[O-])cc1)C(Cl)Cl [CHLORAMPHENICOL]
MIC90, µg/mL: 2
//
COMPOUND: CO[C@@]1(NC(=O)C2SC(=C(C(N)=O)C(=O)O)S2)C(=O)N2C(C(=O)O)=C(CSc3nnnn3C)CS[C@@H]21 (some centres undefined) [CEFOTETAN]
MIC90, µg/mL: 64

Now for the compound whose MIC90 we want.
Incoming: Give the reported MIC90 for this compound. COc1c(N2C[C@@H]3CCCN[C@@H]3C2)c(F)cc2c(=O)c(C(=O)O)cn(C3CC3)c12 [MOXIFLOXACIN]
Outgoing: 2
